Entries annotated with measured pIC50
Biological target: USP1/UAF1 (Homo sapiens (Human))
Sequence (O94782 whole entry): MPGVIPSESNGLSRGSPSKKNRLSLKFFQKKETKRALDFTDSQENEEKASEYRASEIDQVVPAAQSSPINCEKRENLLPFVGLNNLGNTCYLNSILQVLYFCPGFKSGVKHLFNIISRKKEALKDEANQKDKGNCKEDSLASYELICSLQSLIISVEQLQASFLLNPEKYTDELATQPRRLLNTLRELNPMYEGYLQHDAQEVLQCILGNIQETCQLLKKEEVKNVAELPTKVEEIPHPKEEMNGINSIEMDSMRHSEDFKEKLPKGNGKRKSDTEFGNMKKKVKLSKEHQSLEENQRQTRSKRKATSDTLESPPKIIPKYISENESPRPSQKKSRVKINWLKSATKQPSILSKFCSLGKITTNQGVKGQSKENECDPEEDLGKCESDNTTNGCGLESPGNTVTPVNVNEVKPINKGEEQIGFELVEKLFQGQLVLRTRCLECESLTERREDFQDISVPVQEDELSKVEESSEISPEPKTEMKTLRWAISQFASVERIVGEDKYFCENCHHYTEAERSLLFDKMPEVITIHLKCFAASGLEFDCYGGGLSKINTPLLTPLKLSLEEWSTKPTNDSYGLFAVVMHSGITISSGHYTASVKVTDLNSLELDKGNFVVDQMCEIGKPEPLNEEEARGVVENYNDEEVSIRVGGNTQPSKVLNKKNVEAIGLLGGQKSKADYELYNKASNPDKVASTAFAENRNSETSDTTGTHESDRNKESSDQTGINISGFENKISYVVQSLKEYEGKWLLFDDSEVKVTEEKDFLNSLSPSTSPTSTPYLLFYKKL
Sequence (Q8TAF3 whole entry partner): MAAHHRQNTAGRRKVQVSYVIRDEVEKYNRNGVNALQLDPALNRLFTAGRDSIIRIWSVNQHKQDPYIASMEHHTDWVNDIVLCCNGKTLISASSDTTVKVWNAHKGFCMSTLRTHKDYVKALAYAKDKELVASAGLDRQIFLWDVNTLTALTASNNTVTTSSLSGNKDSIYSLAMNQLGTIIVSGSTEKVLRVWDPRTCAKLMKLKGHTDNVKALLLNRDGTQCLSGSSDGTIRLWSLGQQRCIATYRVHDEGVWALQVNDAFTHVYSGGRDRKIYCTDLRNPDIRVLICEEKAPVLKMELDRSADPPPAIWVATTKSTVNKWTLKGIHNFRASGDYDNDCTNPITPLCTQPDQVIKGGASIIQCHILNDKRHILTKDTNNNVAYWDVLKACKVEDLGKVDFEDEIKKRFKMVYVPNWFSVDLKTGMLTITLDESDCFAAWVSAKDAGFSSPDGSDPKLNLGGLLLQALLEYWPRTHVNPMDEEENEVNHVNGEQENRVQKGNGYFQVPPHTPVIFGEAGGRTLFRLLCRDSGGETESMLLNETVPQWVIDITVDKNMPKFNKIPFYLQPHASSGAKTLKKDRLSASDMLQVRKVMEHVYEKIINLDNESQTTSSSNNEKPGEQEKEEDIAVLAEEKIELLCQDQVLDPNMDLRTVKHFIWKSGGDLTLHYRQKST
Assay: Deubiquitination assay for USP1/UAF1 activity (ubiquitin-rhodamine 110)
Format: biochemical
Conditions: Table 4; 0.05 nM USP1/UAF1, 150 nM ubiquitin-rhodamine
pIC50: −log10 of the molar value.

Sample records with pIC50:
                                   compound                       target_desc           val
0  COc1ncnc(C2CC2)c1-c1ncc2nc(C)n(Cc3ccc(-n4nc(C(F)(F)F)cc4C)cc3)c2n1 [drawing 827]  USP1/UAF1 (Homo sapiens (Human))  7.00 to 8.00
1  COc1ncnc(C2CC2)c1-c1ncc2ccn(Cc3ccc(-c4nc(C(F)(F)F)cn4C)cc3)c2n1 [drawing 826]  USP1/UAF1 (Homo sapiens (Human))  7.00 to 8.00
2  COc1ncnc(C2CC2)c1-c1ncc2nc(C(C)C)n(Cc3ccc(-n4nc(C(F)(F)F)cc4C)cc3)c2n1 [drawing 824]  USP1/UAF1 (Homo sapiens (Human))  6.70 to 7.00
3  COc1ncnc(C2CC2)c1-c1ncc2nnn(Cc3ccc(-c4nc(C(F)(F)F)cn4C)cc3)c2n1 [drawing 828]  USP1/UAF1 (Homo sapiens (Human))  7.00 to 8.00
4  CCn1cc(C(F)(F)F)nc1-c1ccc(Cn2nc(OC)c3cnc(-c4c(OC)ncnc4C4CC4)nc32)cc1 [drawing 820]  USP1/UAF1 (Homo sapiens (Human))  7.00 to 8.00
5  COc1ncnc(C2CC2)c1-c1ncc2ccn(Cc3ccc(-c4nc(C(F)(F)F)cn4C(C)C)cc3)c2n1  USP1/UAF1 (Homo sapiens (Human))        > 8.00

Please find the next compound below.
Given the compound COc1ncnc(C2CC2)c1-c1ncc2c(OC)nn([C@@H](C)c3ccc(-c4nc(C(F)(F)F)cn4C(C)C)cc3)c2n1 [drawing 814] , what is its reported pIC50?
7.00 to 8.00
